Numbers sourced from ChEMBL document CHEMBL5532747.

Target: UniProt Q86YV6
Sequence (Q86YV6 whole entry): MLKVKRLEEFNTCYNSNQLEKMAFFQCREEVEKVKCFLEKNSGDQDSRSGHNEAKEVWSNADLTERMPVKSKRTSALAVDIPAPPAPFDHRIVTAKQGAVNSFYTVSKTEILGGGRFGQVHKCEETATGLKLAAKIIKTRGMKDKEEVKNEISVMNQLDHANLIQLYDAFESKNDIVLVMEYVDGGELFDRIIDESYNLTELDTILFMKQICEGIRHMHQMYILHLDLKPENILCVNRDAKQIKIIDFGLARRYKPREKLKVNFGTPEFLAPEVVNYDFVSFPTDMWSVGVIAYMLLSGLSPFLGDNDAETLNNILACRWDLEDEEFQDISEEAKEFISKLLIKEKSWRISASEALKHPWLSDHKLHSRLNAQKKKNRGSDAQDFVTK
Test: Inhibition of MYLK4 (unknown origin) in presence of ATP
// NB: equality with 0.006 µM counts as condition not met; only IC50 strictly below is condition met

Q. Determine whether this compound shows IC50 lower than 0.006 µM (ties excluded): `CC(C)NC(=O)c1ccc(Nc2nccc(-c3ccc4nc(N5CCCC5)ncc4c3)n2)cc1`
A. condition not met

Q. Determine whether this compound shows IC50 lower than 0.006 µM (ties excluded): `CC(C)NC(=O)c1ccc(Nc2nccc(-c3ccc4nc(N5CCOCC5)ncc4c3)n2)cc1`
A. condition not met

Q. Determine whether this compound shows IC50 lower than 0.006 µM (ties excluded): `OCCN1CCC(c2ccc(Nc3nccc(-c4ccc5nc(N6C[C@@H]7C[C@H]6CO7)ncc5c4)n3)cn2)CC1`
A. condition not met

Q. Determine whether this compound shows IC50 lower than 0.006 µM (ties excluded): `CC(C)NC(=O)c1ccc(Nc2ncc(F)c(-c3ccc4nc(N5CCCC5)ncc4c3)n2)cc1`
A. condition not met

Q. Determine whether this compound shows IC50 lower than 0.006 µM (ties excluded): `c1cc(-c2ccc3nc(N4CCOCC4)ncc3c2)nc(Nc2ccc(N3CCNCC3)cc2)n1`
A. condition met

Q. Determine whether this compound shows IC50 lower than 0.006 µM (ties excluded): `c1cc(-c2ccc3nc(N4CCCC4)ncc3c2)nc(Nc2ccc(N3CCNCC3)nc2)n1`
A. condition met
